Origin of the recorded values: paper PMC8571282

assay: in vitro; conditions: human, % cell viability, F2 HAE, 100 µM, 72 h
RECORDED_METRIC: viability at 100 µM (%)
One number for each entry, in %.

Item CCC(CC)COC(=O)[C@H](C)N[P@](=O)(OC[C@H]1O[C@@](C#N)(c2ccc3c(N)ncnn23)[C@H](O)[C@@H]1O)Oc1ccccc1 [remdesivir] : provide viability at 100 µM
46

---

experiment: Cytotoxicity assay (PrestoBlue), “F2” HAE; settings: human, CC50, “F2” HAE
RECORDED_METRIC: CC50 at 72 h (µM)
Give bare numbers, in µM.

Recall and state the measured CC50 at 72 h for CC(C)C(=O)OCC1OC(C#N)(c2ccc3c(N)ncnn23)C(OC(=O)C(C)C)C1OC(=O)C(C)C (centres unmarked) .
43.8

---

test: Cytotoxicity assay (PrestoBlue), “F2” HAE; conditions: female, human, % cell viability, F2 HAE, 1.235 µM
RECORDED_METRIC: viability at 72 h, 1.235 µM

Look up and report measured viability at 72 h, 1.235 µM for this entry: CC(C)C(=O)OCC1OC(C#N)(c2ccc3c(N)ncnn23)C(OC(=O)C(C)C)C1OC(=O)C(C)C (stereo not shown) [GS-621763]
100%

---

assay: in vitro; conditions: hamster
RECORDED_METRIC: CC50

Provide measured CC50 value, entry: `CCC(CC)COC(=O)[C@H](C)N[P@](=O)(OC[C@H]1O[C@@](C#N)(c2ccc3c(N)ncnn23)[C@H](O)[C@@H]1O)Oc1ccccc1`
> 100 µM

---

experiment: in vitro; details: human, % cell viability, F3 HAE, 100 µM, 72 h
RECORDED_METRIC: viability at 100 µM

Given the compound `CCC(CC)COC(=O)[C@H](C)N[P@](=O)(OC[C@H]1O[C@@](C#N)(c2ccc3c(N)ncnn23)[C@H](O)[C@@H]1O)Oc1ccccc1` , write its reported viability at 100 µM.
51%

---

assay: in vitro; conditions: hamster, % cell viability, BHK-21, 1.235 µM, 72 h
RECORDED_METRIC: viability at 1.235 µM (%)
Numbers only, in %.

Determine its reported viability at 1.235 µM: `CCC(CC)COC(=O)[C@H](C)N[P@](=O)(OC[C@H]1O[C@@](C#N)(c2ccc3c(N)ncnn23)[C@H](O)[C@@H]1O)Oc1ccccc1`
87

---

test: in vitro; conditions: female, human, % cell viability, F2 HAE, 33.333 µM, 72 h
RECORDED_METRIC: viability at 33.333 µM (%)
One number for each entry, in %.

Return reported viability at 33.333 µM. Input compound: `CCC(CC)COC(=O)[C@H](C)N[P@](=O)(OC[C@H]1O[C@@](C#N)(c2ccc3c(N)ncnn23)[C@H](O)[C@@H]1O)Oc1ccccc1`
72

---

assay: in vitro; settings: female, human, % cell viability
RECORDED_METRIC: viability at […] (%)
Give bare numbers, in %.

Entry CC(C)C(=O)OCC1OC(C#N)(c2ccc3c(N)ncnn23)C(OC(=O)C(C)C)C1OC(=O)C(C)C (stereo not shown) [GS-621763] needs its viability at […] filled in; supply it.
101

---

assay: in vitro; details: male, human, % cell viability, M6 HAE, 1.235 µM, 72 h
RECORDED_METRIC: viability at 1.235 µM (%)
One number for each entry, in %.

Report viability at 1.235 µM, nothing else, for this compound: `CCC(CC)COC(=O)[C@H](C)N[P@](=O)(OC[C@H]1O[C@@](C#N)(c2ccc3c(N)ncnn23)[C@H](O)[C@@H]1O)Oc1ccccc1`
87

---

assay: in vitro; details: human, % cell viability, HEp-2, 100 µM, 72 h
RECORDED_METRIC: viability at 100 µM (%)
One number for each entry, in %.

# return recorded viability at 100 µM for entry CCC(CC)COC(=O)[C@H](C)N[P@](=O)(OC[C@H]1O[C@@](C#N)(c2ccc3c(N)ncnn23)[C@H](O)[C@@H]1O)Oc1ccccc1 [remdesivir]
31

---

assay: Cytotoxicity assay (PrestoBlue), “F3” HAE; settings: female, human, % cell viability, F3 HAE, 1.235 µM
RECORDED_METRIC: viability at 72 h, 1.235 µM (%)
Answers are plain numbers, in %.

Fill in viability at 72 h, 1.235 µM for record CC(C)C(=O)OCC1OC(C#N)(c2ccc3c(N)ncnn23)C(OC(=O)C(C)C)C1OC(=O)C(C)C (stereo not shown)
121

---

assay: in vitro; details: male, human, % cell viability, M6 HAE, 33.333 µM, 72 h
RECORDED_METRIC: viability at 33.333 µM
# output: number + unit

Specify measured viability at 33.333 µM for `CCC(CC)COC(=O)[C@H](C)N[P@](=O)(OC[C@H]1O[C@@](C#N)(c2ccc3c(N)ncnn23)[C@H](O)[C@@H]1O)Oc1ccccc1` .
96%

---

test: Cytotoxicity assay (PrestoBlue), BHK-21; settings: hamster, BHK-21 cells, % cell viability, BHK-21, 100 µM, 72 h
RECORDED_METRIC: viability at 72 h, 100 µM (%)
Give bare numbers, in %.

Name the recorded viability at 72 h, 100 µM of the compound listed here: CC(C)C(=O)OCC1OC(C#N)(c2ccc3c(N)ncnn23)C(OC(=O)C(C)C)C1OC(=O)C(C)C (stereo not shown) [GS-621763]
85

---

tested on: “M2” primary HAE cells; assay: Cytotoxicity assay (PrestoBlue), “M2” HAE; conditions: “M2” HAE, 72 h
RECORDED_METRIC: CC50 (µM)
One number for each entry, in µM.

Read off the recorded CC50 for CC(C)C(=O)OCC1OC(C#N)(c2ccc3c(N)ncnn23)C(OC(=O)C(C)C)C1OC(=O)C(C)C (stereo not shown) [GS-621763]
39.7

---

experiment: Cytotoxicity assay (PrestoBlue), HEp-2; conditions: human, HEp-2 cells, CC50, HEp-2, 72 h
RECORDED_METRIC: CC50 at 72 h (µM)
Give bare numbers, in µM.

// Input: CC(C)C(=O)OCC1OC(C#N)(c2ccc3c(N)ncnn23)C(OC(=O)C(C)C)C1OC(=O)C(C)C (centres unmarked) . Output its CC50 at 72 h only.
79.4

---

assay: Cytotoxicity assay (PrestoBlue), HEp-2; details: human, HEp-2 cells, % cell viability, HEp-2, 33.333 µM, 72 h
RECORDED_METRIC: viability at 72 h, 33.333 µM (%)
Give bare numbers, in %.

Output viability at 72 h, 33.333 µM of CC(C)C(=O)OCC1OC(C#N)(c2ccc3c(N)ncnn23)C(OC(=O)C(C)C)C1OC(=O)C(C)C (stereo not shown)
111

---

assay: in vitro; details: human, % cell viability, HEp-2, 33.333 µM, 72 h
RECORDED_METRIC: viability at 72 h, 33.333 µM (%)
Answers are plain numbers, in %.

Please look at this compound and report its viability at 72 h, 33.333 µM: CC(C)C(=O)OCC1OC(C#N)(c2ccc3c(N)ncnn23)C(OC(=O)C(C)C)C1OC(=O)C(C)C (stereo not shown)
112

---

assay: in vitro; conditions: African green monkey
RECORDED_METRIC: CC50

Return CC50 for the following compound: `CCC(CC)COC(=O)[C@H](C)N[P@](=O)(OC[C@H]1O[C@@](C#N)(c2ccc3c(N)ncnn23)[C@H](O)[C@@H]1O)Oc1ccccc1`
> 100 µM

---

experiment: Cytotoxicity assay (PrestoBlue), “F3” HAE; settings: female, human, % cell viability, F3 HAE, 3.704 µM
RECORDED_METRIC: viability at 72 h, 3.704 µM (%)
Give bare numbers, in %.

Identify measured viability at 72 h, 3.704 µM associated with CC(C)C(=O)OCC1OC(C#N)(c2ccc3c(N)ncnn23)C(OC(=O)C(C)C)C1OC(=O)C(C)C (stereo not shown)
111

---

test system: “F2” primary HAE cells; assay: Cytotoxicity assay (PrestoBlue), “F2” HAE; settings: “F2” HAE, 72 h
Would you kindly list CC50 for each of these compounds?
Numbers only, in µM.

1) CC(C)C(=O)OCC1OC(C#N)(c2ccc3c(N)ncnn23)C(OC(=O)C(C)C)C1OC(=O)C(C)C (centres unmarked)    43.8

Could you now look at the following compound, please?
Return the recorded CC50 value; entry: `CCC(CC)COC(=O)[C@H](C)N[P@](=O)(OC[C@H]1O[C@@](C#N)(c2ccc3c(N)ncnn23)[C@H](O)[C@@H]1O)Oc1ccccc1`
85.5

---

test: Cytotoxicity assay (PrestoBlue), BHK-21; conditions: hamster, BHK-21 cells, % cell viability, BHK-21, 33.333 µM, 72 h
RECORDED_METRIC: viability at 72 h, 33.333 µM (%)
Give bare numbers, in %.

Retrieve viability at 72 h, 33.333 µM measured for CC(C)C(=O)OCC1OC(C#N)(c2ccc3c(N)ncnn23)C(OC(=O)C(C)C)C1OC(=O)C(C)C (stereo not shown) and print it.
91
